studySystem: T1, α9 nAChR (human, UniProt Q9UGM1 23-238)
T1 construct: also called target protein α9 nAChR; α9 nicotinic acetylcholine receptor
T1 sequence (Q9UGM1 23-238 limits assumed): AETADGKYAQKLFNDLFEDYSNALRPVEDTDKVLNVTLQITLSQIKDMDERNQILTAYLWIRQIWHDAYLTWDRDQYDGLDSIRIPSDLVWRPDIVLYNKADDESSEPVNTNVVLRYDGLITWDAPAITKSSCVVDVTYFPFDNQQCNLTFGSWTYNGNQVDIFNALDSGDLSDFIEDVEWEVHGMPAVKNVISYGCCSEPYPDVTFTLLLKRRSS
assayNotes: BLI, α9 nAChR captured on NTA sensor, peptide 1.372-1000 nM in solution
Positions of bridges follow the written chain, without caps; N, C: chain ends. Non-standard residues stand in square brackets, D forms with d. No end group written: not given here.
endpoint: Kd

Name the reported Kd value associated with the binder GSCS[dT]PPS[dC]VLYS (disulfide 3-9, Printed: GSCS-(D-Thr)-PPS-(D-Cys)-VLYS (3,9 disulfide bond)) [AJ003-1]
86 nM

Which Kd value is on record for GSCS[dT]PPS[dC]VLYA (disulfide 3-9, Printed: GSCS-(D-Thr)-PPS-(D-Cys)-VLYA (3,9 disulfide bond)) [AJ003-22] ?
163 nM

Requested read-out: Kd. Entry: GSCS[dT]PPS[dC]VAYS (disulfide 3-9, Printed: GSCS-(D-Thr)-PPS-(D-Cys)-VAYS (3,9 disulfide bond)) [AJ003-20]
16.3 nM
